Data provenance is patent US20250353873A1.

Give measured pIC50 for each item. Keep answers brief.
Test system: human APOE RNA
measurement_protocol: Dose-dependent reduction of human APOE RNA in HepG2 cells, electroporation, 20,000 cells per well, average of GAPDH- and PPIA-normalized results (Example 4, Table 12)
Format: cell-based
conditions_used: HepG2, 20,000 cells per well, approximately 24 hours
Strand notation (5' to 3'): a small letter for the sugar, then the base; units joined by * are phosphorothioate-linked, units joined directly phosphodiester-linked; [ ] holds rarer units or linkages, { } end groups; capitals alone tell only the bases. [ms] = mesyl phosphoramidate linkage; e = 2'-O-(2-methoxyethyl) (MOE); k = constrained ethyl (cEt); [5mC] = 5-methylcytosine; d = 2'-deoxy (DNA)
Answers are plain numbers, as −log10 of the molar value.

Example results:
>  <substance>
1785599: modified oligonucleotide complementary to human APOE RNA (k[5mC]*kT*kT*dG[ms]dG[ms]dT[ms]dG[ms]dA[ms]dA[ms]dT[ms]d[5mC]*dT*dT*dT*dA*dT*kT*kA*dA[ms]kA; antisense) [compound 1785599]

>  <pIC50>
6.29

$$$$
>  <substance>
1778128: modified oligonucleotide complementary to human APOE RNA (eA*e[5mC]eTeTkGkG*dT*dG[ms]dA[ms]dA*dT*d[5mC]*dT*dT*dT*dA[ms]kTeT*eA*eA; antisense) [compound 1778128]

>  <pIC50>
6.46

$$$$
>  <substance>
1778111: modified oligonucleotide complementary to human APOE RNA (eA*e[5mC]eTeTeG*kG*dT*dG[ms]dA[ms]dA*dT*d[5mC]*dT*dT*dT*dA[ms]eTeT*eA*eA; antisense) [compound 1778111]

>  <pIC50>
6.36

$$$$
>  <substance>
1757575 (eA*e[5mC]eTeT*kG*kG*dT*dG[ms]dA[ms]dA[ms]dT*d[5mC]*dT*dT*dT*dA[ms]kT*eT*eA*eA; antisense) [Compound 1757575]

>  <pIC50>
6.24

$$$$
>  <substance>
1778130: modified oligonucleotide complementary to human APOE RNA (eA*e[5mC]eTeTeG*kG*dT*dG[ms]dA[ms]dA*dT*d[5mC]*dT*dT*dT*dA[ms]kTkT*eA*eA; antisense) [compound 1778130]

>  <pIC50>
6.51

$$$$

For the 2 substances below, give their pIC50 values.
1. ^mCksTksTksGdzGdzTdzGdzAdzAdzTds^mCdsTdsTdsTdsAdsTdsTksAksAdzAk (antisense k[5mC]*kT*kT*dG[ms]dG[ms]dT[ms]dG[ms]dA[ms]dA[ms]dT*d[5mC]*dT*dT*dT*dA*dT*kT*kA*dA[ms]kA) [Compound No. 1785602]
2. 1785598: modified oligonucleotide complementary to human APOE RNA (k[5mC]*kT*kT*dG[ms]dG[ms]dT[ms]dG[ms]dA[ms]dA[ms]dT*d[5mC]*dT*dT*dT*dA*dT[ms]kT*kA*dA[ms]kA; antisense) [compound 1785598]

1: 6.52; 2: 6.54

----------
System: human APOE RNA
measurement_protocol: Potency (dose response, ED50) in APOE C57BL/6NTac-Apoeem7250 knock-in mice, 8 weeks (Example 15)
Assay type: in vivo
conditions_used: spinal cord, ICV dose 10 μg
Procedure: Modified oligonucleotides described above were tested in the APOE C57BL/6NTac-Apoeem7250 knock-in mouse model described above. APOE C57BL/6NTac-Apoeem7250 knock-in mice were divided into groups of 3-4 mice each. […] Eight weeks post treatment, mice were sacrificed, and RNA was extracted from cortical brain tissue and spinal cord for quantitative real-time RT-PCR analysis of RNA expression of […] using human primer probe set RTS3073 (described herein above). […]
Strand notation (5' to 3'): a small letter for the sugar, then the base; units joined by * are phosphorothioate-linked, units joined directly phosphodiester-linked; [ ] holds rarer units or linkages, { } end groups; capitals alone tell only the bases. [ms] = mesyl phosphoramidate linkage; e = 2'-O-(2-methoxyethyl) (MOE); k = constrained ethyl (cEt); [5mC] = 5-methylcytosine; d = 2'-deoxy (DNA)
recorded_endpoint: APOE RNA (% control) Spinal Cord

Example results:
>  <substance>
TezTeoGeoGksTdsGdzAdzAdzTds^mCdsTdsTdsTdsAdzTksTksAesAesAes^mCe (antisense eT[ms]eTeGkG*dT*dG[ms]dA[ms]dA[ms]dT*d[5mC]*dT*dT*dT*dA[ms]kT*kT*eA*eA*eA*e[5mC]) [Compound No. 1809814]

>  <APOE RNA (% control) Spinal Cord>
81 % control

$$$$
>  <substance>
1785599: modified oligonucleotide complementary to human APOE RNA (k[5mC]*kT*kT*dG[ms]dG[ms]dT[ms]dG[ms]dA[ms]dA[ms]dT[ms]d[5mC]*dT*dT*dT*dA*dT*kT*kA*dA[ms]kA; antisense) [compound 1785599]

>  <APOE RNA (% control) Spinal Cord>
54 % control

$$$$
>  <substance>
Aes^mCeoTeoTesGesGksTdsGdzAdzAdzTds^mCdsTdsTdsTdsAdzTksTksAesAe (eA*e[5mC]eTeT*eG*kG*dT*dG[ms]dA[ms]dA[ms]dT*d[5mC]*dT*dT*dT*dA[ms]kT*kT*eA*eA) [Compound No. 1757576]

>  <APOE RNA (% control) Spinal Cord>
33 % control

$$$$

For the 2 substances below, give their APOE RNA (% control) Spinal Cord values.
1. ^mCksTksTksGdzGdzTdzGdzAdzAdzTds^mCdsTdsTdsTdsAdsTdsTksAksAdzAk (antisense k[5mC]*kT*kT*dG[ms]dG[ms]dT[ms]dG[ms]dA[ms]dA[ms]dT*d[5mC]*dT*dT*dT*dA*dT*kT*kA*dA[ms]kA) [Compound No. 1785602]
2. Aks^mCeoTeoTesGesGksTdsGdzAdzAdzTds^mCdsTdsTdsTdsAdzTksTksAesAe (kA*e[5mC]eTeT*eG*kG*dT*dG[ms]dA[ms]dA[ms]dT*d[5mC]*dT*dT*dT*dA[ms]kT*kT*eA*eA) [Compound No. 1809635]

["73 % control", "51 % control"]
